Tested on: SK-BR-3
Assay: Potency index, ratio of IC50 of TFP to IC50 of compound for antiproliferative activity against human SKBR3 cells assessed as reduction in cell viability incubated for 2 days by MTT assay
Format: functional
Quantity Name: Ratio IC50
The answer should be a number; do not append a unit.

{"Smiles Text": "CSc1ccc2c(c1)N(CCCN1CCN(C(=O)CCC(=O)OCC#CCOc3no[n+]([O-])c3S(=O)(=O)c3ccccc3)CC1)c1ccccc1S2", "Ratio IC50": 6}
{"Smiles Text": "O=C(CCC(=O)N1CCN(CCCN2c3ccccc3Sc3ccccc32)CC1)OCCOCCOc1no[n+]([O-])c1S(=O)(=O)c1ccccc1", "Ratio IC50": 4}

Consider the additional molecule presented here.
(Q) Identify the measured Ratio IC50 of `CSc1ccc2c(c1)N(CCCN1CCN(C(=O)CCC(=O)OCCOCCOc3no[n+]([O-])c3S(=O)(=O)c3ccccc3)CC1)c1ccccc1S2` for SK-BR-3.
(A) 4

* * *

Listed next: entries and their corresponding log10 of IC50.
System: SK-BR-3
Assay: Antiproliferative activity against human SKBR3 cells assessed as reduction in cell viability incubated for 2 days by MTT assay
Assay type: functional, cell-based
Condition Set: SK-BR-3, 48 h
Scale: log10; quantity: IC50; unit before log: µM

Study these solved cases before continuing.
{"Compound": "CSc1ccc2c(c1)N(CCCN1CCN(C(=O)CCC(=O)OCCOc3no[n+]([O-])c3S(=O)(=O)c3ccccc3)CC1)c1ccccc1S2", "log10 of IC50": 0.59}
{"Compound": "CSc1ccc2c(c1)N(CCCN1CCN(C(=O)CCC(=O)NCCOc3no[n+]([O-])c3S(=O)(=O)c3ccccc3)CC1)c1ccccc1S2", "log10 of IC50": 0.43}
{"Compound": "O=C(CCC(=O)N1CCN(CCCN2c3ccccc3Sc3ccccc32)CC1)OCC#CCOc1no[n+]([O-])c1S(=O)(=O)c1ccccc1", "log10 of IC50": 0.95}
{"Compound": "OCCN(CCO)CCCN1c2ccccc2Sc2ccc(C(F)(F)F)cc21", "log10 of IC50": 1.64}

(Q) Reported log10 of IC50 for `CSc1ccc2c(c1)N(CCCN(CCO)CCO)c1ccccc1S2` : what is it?
(A) 1.43

(Q) Reported log10 of IC50 for `CSc1ccc2c(c1)N(CCCN1CCN(C(=O)CCC(=O)OCCCCOc3no[n+]([O-])c3S(=O)(=O)c3ccccc3)CC1)c1ccccc1S2` : what is it?
(A) 0.99

(Q) Reported log10 of IC50 for `O=C(CCC(=O)N1CCN(CCCN2c3ccccc3Sc3ccccc32)CC1)OCCOc1no[n+]([O-])c1S(=O)(=O)c1ccccc1` : what is it?
(A) 0.35

(Q) Reported log10 of IC50 for `CN1CCN(CCCN2c3ccccc3Sc3ccc(C(F)(F)F)cc32)CC1` : what is it?
(A) 1.20

(Q) Reported log10 of IC50 for `O=C(CCC(=O)N1CCN(CCCN2c3ccccc3Sc3ccc(C(F)(F)F)cc32)CC1)OCC#CCOc1no[n+]([O-])c1S(=O)(=O)c1ccccc1` : what is it?
(A) 1.26

(Q) Reported log10 of IC50 for `O=C(CCC(=O)N1CCN(CCCN2c3ccccc3Sc3ccc(C(F)(F)F)cc32)CC1)OCCCCOc1no[n+]([O-])c1S(=O)(=O)c1ccccc1` : what is it?
(A) 1.81

(Q) Reported log10 of IC50 for CSc1ccc2c(c1)N(CCC1CCCCN1C)c1ccccc1S2 (centres undefined) : what is it?
(A) 1.26

(Q) Reported log10 of IC50 for `O=C(CCC(=O)N1CCN(CCCN2c3ccccc3Sc3ccccc32)CC1)OCCCCOc1no[n+]([O-])c1S(=O)(=O)c1ccccc1` : what is it?
(A) 1.13

(Q) Reported log10 of IC50 for `O=C(CCC(=O)N1CCN(CCCN2c3ccccc3Sc3ccc(C(F)(F)F)cc32)CC1)NCCOc1no[n+]([O-])c1S(=O)(=O)c1ccccc1` : what is it?
(A) 0.25

(Q) Reported log10 of IC50 for `O=C(CCC(=O)N1CCN(CCCN2c3ccccc3Sc3ccc(C(F)(F)F)cc32)CC1)OCCOCCOc1no[n+]([O-])c1S(=O)(=O)c1ccccc1` : what is it?
(A) 1.00
